Test system: L1210
Procedure Text: Inhibition of L1210 cell proliferation in cytotoxic assay
Assay type: functional, cell-based
Condition Info: Mus musculus
Answer each item with its documented IC50.
// units = nM; emit number, no label

"COc1cc([C@@H]2c3cc4c(cc3[C@@H](OC(=O)NCCCN)[C@H]3C(=O)OC[C@H]23)OCO4)cc(OC)c1O" yielded IC50 of 4300

COc1cc([C@@H]2c3cc4c(cc3[C@@H](OC(=O)NCCCN)C3COC(=O)[C@@H]32)OCO4)cc(OC)c1O (some centres not stated) yielded IC50 of 1300

COc1cc([C@@H]2c3cc4c(cc3[C@@H](OC(=O)N(C)CCN(C)C)C3COC(=O)[C@@H]32)OCO4)cc(OC)c1O (some centres not stated) yielded IC50 of 1700

"COc1cc([C@@H]2c3cc4c(cc3[C@@H](OC(=O)NCCCN(C)C)[C@H]3C(=O)OC[C@H]23)OCO4)cc(OC)c1O" yielded IC50 of 1400

COc1cc([C@@H]2c3cc4c(cc3[C@@H](OC(=O)NCCCN(C)C)C3COC(=O)[C@@H]32)OCO4)cc(OC)c1O (some centres not stated) yielded IC50 of 340

"COc1cc([C@@H]2c3cc4c(cc3[C@@H](OC(=O)N(C)CCN(C)C)[C@H]3C(=O)OC[C@H]23)OCO4)cc(OC)c1O" yielded IC50 of 5200

COc1cc([C@@H]2c3cc4c(cc3[C@@H](OC(=O)NCCN(C)C)C3COC(=O)[C@@H]32)OCO4)cc(OC)c1O (some centres not stated) yielded IC50 of 38

###

Measurement Target: DNA topoisomerase 2-alpha (Homo sapiens)
Procedure Text: Inhibition of human DNA topoisomerase II alpha as percent linear DNA after treatment with 20 uM
Result Type: percent linear DNA (%)
// units = %; emit number, no label

Query COc1cc([C@@H]2c3cc4c(cc3[C@@H](OC(=O)NCCCN(C)C)C3COC(=O)[C@@H]32)OCO4)cc(OC)c1O (stereo partly drawn) on DNA topoisomerase 2-alpha (Homo sapiens); percent linear DNA returned: 58

Query COc1cc([C@@H]2c3cc4c(cc3[C@@H](OC(=O)N(C)CCN(C)C)C3COC(=O)[C@@H]32)OCO4)cc(OC)c1O (stereo partly drawn) on DNA topoisomerase 2-alpha (Homo sapiens); percent linear DNA returned: 27

Query "COc1cc([C@@H]2c3cc4c(cc3[C@@H](OC(=O)NCCCN(C)C)[C@H]3C(=O)OC[C@H]23)OCO4)cc(OC)c1O" on DNA topoisomerase 2-alpha (Homo sapiens); percent linear DNA returned: 0

Query "COc1cc([C@@H]2c3cc4c(cc3[C@@H](OC(=O)NCCCN)[C@H]3C(=O)OC[C@H]23)OCO4)cc(OC)c1O" on DNA topoisomerase 2-alpha (Homo sapiens); percent linear DNA returned: 0

Query COc1cc([C@@H]2c3cc4c(cc3[C@@H](OC(=O)NCCN(C)C)C3COC(=O)[C@@H]32)OCO4)cc(OC)c1O (stereo partly drawn) on DNA topoisomerase 2-alpha (Homo sapiens); percent linear DNA returned: 56

Query "COc1cc([C@@H]2c3cc4c(cc3[C@@H](OC(=O)NCCN(C)C)[C@H]3C(=O)OC[C@H]23)OCO4)cc(OC)c1O" on DNA topoisomerase 2-alpha (Homo sapiens); percent linear DNA returned: 64

Query COc1cc([C@@H]2c3cc4c(cc3[C@@H](CCN(C)CCN(C)C)C3COC(=O)[C@@H]32)OCO4)cc(OC)c1O (stereo partly drawn) on DNA topoisomerase 2-alpha (Homo sapiens); percent linear DNA returned: 57

Query COc1cc([C@@H]2c3cc4c(cc3[C@@H](OC(=O)NCCCN)C3COC(=O)[C@@H]32)OCO4)cc(OC)c1O (stereo partly drawn) on DNA topoisomerase 2-alpha (Homo sapiens); percent linear DNA returned: 38

Query "COc1cc([C@@H]2c3cc4c(cc3[C@@H](OC(=O)N(C)CCN(C)C)[C@H]3C(=O)OC[C@H]23)OCO4)cc(OC)c1O" on DNA topoisomerase 2-alpha (Homo sapiens); percent linear DNA returned: 0

Query COc1cc([C@@H]2c3cc4c(cc3[C@@H](O[C@@H]3O[C@@H]5CO[C@@H](C)O[C@H]5[C@H](O)[C@H]3O)[C@H]3COC(=O)[C@H]23)OCO4)cc(OC)c1O [ETOPOSIDE] on DNA topoisomerase 2-alpha (Homo sapiens); percent linear DNA returned: 50

Query "COc1cc([C@@H]2c3cc4c(cc3[C@@H](OC(=O)N(C)CCCN(C)C)[C@H]3C(=O)OC[C@H]23)OCO4)cc(OC)c1O" on DNA topoisomerase 2-alpha (Homo sapiens); percent linear DNA returned: 0

Query COc1cc([C@@H]2c3cc4c(cc3[C@@H](OC(=O)N(C)CCCN)C3COC(=O)[C@@H]32)OCO4)cc(OC)c1O (stereo partly drawn) on DNA topoisomerase 2-alpha (Homo sapiens); percent linear DNA returned: 8

Query COc1cc([C@@H]2c3cc4c(cc3[C@@H](OC(=O)N(C)CCCN(C)C)C3COC(=O)[C@@H]32)OCO4)cc(OC)c1O (stereo partly drawn) on DNA topoisomerase 2-alpha (Homo sapiens); percent linear DNA returned: 17
